# TESTED TARGET: 5-hydroxytryptamine receptor 2A (Rattus norvegicus)
# Sequence (P14842 whole entry): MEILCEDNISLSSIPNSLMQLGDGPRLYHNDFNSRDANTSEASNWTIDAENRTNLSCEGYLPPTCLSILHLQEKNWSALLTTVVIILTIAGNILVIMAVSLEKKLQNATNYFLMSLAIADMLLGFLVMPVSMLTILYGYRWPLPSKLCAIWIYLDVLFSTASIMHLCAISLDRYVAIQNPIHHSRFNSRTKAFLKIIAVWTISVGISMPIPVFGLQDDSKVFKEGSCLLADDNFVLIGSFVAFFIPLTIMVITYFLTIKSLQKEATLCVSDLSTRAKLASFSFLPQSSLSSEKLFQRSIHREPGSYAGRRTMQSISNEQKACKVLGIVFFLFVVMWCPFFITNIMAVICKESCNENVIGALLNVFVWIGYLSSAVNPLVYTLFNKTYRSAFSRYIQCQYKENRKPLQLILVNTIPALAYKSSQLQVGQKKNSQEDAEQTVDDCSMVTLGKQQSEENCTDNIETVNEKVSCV
pKi: −log10 of the molar value.
ENDPOINT: pKi

1. O=C(NC1CC2CCC(C1)N2Cc1ccncc1)c1ccc2ccccc2c1 (stereo not drawn) :: 5.95
2. O=C(NC1CC2CCC(C1)N2Cc1cccnc1)c1ccc2ccccc2c1 (stereo not drawn) :: 6.32
3. O=C(NC1CC2CCC(C1)N2Cc1cccc(F)c1)c1ccc2ccccc2c1 (stereo not drawn) :: 6.99
4. O=C(NC1CC2CCC(C1)N2Cc1ccc(Br)cc1)c1ccc2ccccc2c1 (stereo not drawn) :: 6.49
5. O=C(NC1CC2CCC(C1)N2Cc1ccccc1C(F)(F)F)c1ccc2ccccc2c1 (stereo not drawn) :: 6.99
6. O=C(NC1CC2CCC(C1)N2Cc1ccccc1Cl)c1ccc2ccccc2c1 (stereo not drawn) :: 6.40
7. COc1ccc(CN2C3CCC2CC(NC(=O)c2ccc4ccccc4c2)C3)cc1 (stereo not drawn) :: 6.04
8. O=C(NC1CC2CCC(C1)N2Cc1ccccc1)c1ccc2ccccc2n1 (stereo not drawn) :: 6.30
9. O=C(NC1CC2CCC(C1)N2Cc1cccc(C(F)(F)F)c1)c1ccc2ccccc2c1 (stereo not drawn) :: 6.68
10. COc1cc(C(=O)NC2CC3CCC(C2)N3Cc2ccccc2)nc2ccccc12 (stereo not drawn) :: 6.31
11. O=C(NC1CC2CCC(C1)N2Cc1ccccc1Br)c1ccc2ccccc2c1 (stereo not drawn) :: 6.87
12. Cc1ccc(CN2C3CCC2CC(NC(=O)c2ccc4ccccc4c2)C3)cc1 (stereo not drawn) :: 6.07
13. Cc1ccccc1CN1C2CCC1CC(NC(=O)c1ccc3ccccc3c1)C2 (stereo not drawn) :: 5.89
14. COc1ccccc1CN1C2CCC1CC(NC(=O)c1ccc3ccccc3c1)C2 (stereo not drawn) :: 6.04
15. O=C(NC1CC2CCC(C1)N2Cc1cccc(Br)c1)c1ccc2ccccc2c1 (stereo not drawn) :: 6.98
16. O=C(NC1CC2CCC(C1)N2Cc1ccc(F)cc1)c1ccc2ccccc2c1 (stereo not drawn) :: 6.68
17. O=C(NC1CC2CCC(C1)N2Cc1ccccc1F)c1ccc2ccccc2c1 (stereo not drawn) :: 6.98
18. O=C(NC1CC2CCC(C1)N2Cc1cccc(Cl)c1)c1ccc2ccccc2c1 (stereo not drawn) :: 6.87
19. O=C(NC1CC2CCC(C1)N2Cc1ccc(Cl)cc1)c1ccc2ccccc2c1 (stereo not drawn) :: 6.40
20. COc1cccc(CN2C3CCC2CC(NC(=O)c2ccc4ccccc4c2)C3)c1 (stereo not drawn) :: 6.18
21. O=C(NC1CC2CCC(C1)N2Cc1ccccn1)c1ccc2ccccc2c1 (stereo not drawn) :: 6.23
22. Cc1cccc(CN2C3CCC2CC(NC(=O)c2ccc4ccccc4c2)C3)c1 (stereo not drawn) :: 6.64
